Where do the numbers come from? From ChEMBL document CHEMBL2069212.

study.system: UniProtKB P32245
Sequence (P32245 whole entry): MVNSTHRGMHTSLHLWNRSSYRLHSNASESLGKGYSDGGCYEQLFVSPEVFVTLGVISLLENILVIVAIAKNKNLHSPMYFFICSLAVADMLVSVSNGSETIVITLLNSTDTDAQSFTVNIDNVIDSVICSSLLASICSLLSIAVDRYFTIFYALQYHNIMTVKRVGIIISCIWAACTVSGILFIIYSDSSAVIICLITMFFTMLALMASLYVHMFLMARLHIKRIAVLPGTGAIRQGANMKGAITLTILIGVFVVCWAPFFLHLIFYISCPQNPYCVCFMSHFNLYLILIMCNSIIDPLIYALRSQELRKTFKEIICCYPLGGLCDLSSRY
test: Displacement of [125I]-NAD-alpha-MSH from MC4 receptor after 2 hrs by gamma counting in presence of ovalbumin
Give Ki for every item shown.
Answer shape: numeric part, then the unit.

* CCCC[C@H](NC(=O)[C@H](CNC(C)C)NC(=O)[C@H](Cc1cnc[nH]1)NC(=O)[C@H](CCC(N)=O)NC(=O)[C@H](CO)NC(=O)CNC(=O)COCCOCCNC(=O)CCCCCCCCCCCCCCCc1nnn[nH]1)C(=O)N[C@H]1CCC(=O)NCCCC[C@@H](C(N)=O)NC(=O)[C@H](Cc2c[nH]c3ccccc23)NC(=O)[C@H](CCCNC(=N)N)NC(=O)[C@@H](Cc2ccccc2)NC(=O)[C@@H]2C[C@@H](O)CN2C1=O | 0.26 nM
* CCCCCCCCCCCCCCCC(=O)NS(=O)(=O)CCCC(=O)NCC(=O)N[C@@H](CO)C(=O)N[C@@H](CCC(N)=O)C(=O)N[C@@H](Cc1cnc[nH]1)C(=O)N[C@@H](CO)C(=O)N[C@@H](CCCC)C(=O)N[C@H]1CCC(=O)NCCCC[C@@H](C(N)=O)NC(=O)[C@H](Cc2c[nH]c3ccccc23)NC(=O)[C@H](CCCNC(=N)N)NC(=O)[C@@H](Cc2ccccc2)NC(=O)[C@@H]2C[C@@H](O)CN2C1=O | 0.11 nM
* CCCC[C@H](NC(=O)[C@H](CN)NC(=O)[C@H](Cc1cnc[nH]1)NC(=O)[C@H](CCC(N)=O)NC(=O)[C@H](CO)NC(=O)CNC(=O)COCCOCCNC(=O)CCCCCCCCCCCCCCCc1nnn[nH]1)C(=O)N[C@H]1CCC(=O)NCCCC[C@@H](C(N)=O)NC(=O)[C@H](Cc2c[nH]c3ccccc23)NC(=O)[C@H](CCCN=C(N)N)NC(=O)[C@@H](Cc2ccccc2)NC(=O)[C@@H]2C[C@@H](O)CN2C1=O | 0.17 nM
* CCCCCCCCCCCCCCCC(=O)NCC(=O)N[C@@H](CO)C(=O)N[C@@H](CCC(N)=O)C(=O)N[C@@H](Cc1cnc[nH]1)C(=O)N[C@@H](CO)C(=O)N[C@@H](CCCC)C(=O)N[C@H]1CCC(=O)NCCCC[C@@H](C(N)=O)NC(=O)[C@H](Cc2c[nH]c3ccccc23)NC(=O)[C@H](CCCNC(=N)N)NC(=O)[C@@H](Cc2ccccc2)NC(=O)[C@@H]2C[C@@H](O)CN2C1=O | 0.12 nM

// field: Ki; key: `CCCC[C@H](NC(=O)[C@H](CO)NC(=O)[C@H](Cc1cnc[nH]1)NC(=O)[C@H](CCC(N)=O)NC(=O)[C@H](CO)NC(=O)CNC(=O)COCCOCCNC(=O)CCCCCCCCCCCCCCCc1nnn[nH]1)C(=O)N[C@H]1CCC(=O)NCCCC[C@@H](C(N)=O)NC(=O)[C@H](Cc2c[nH]c3ccccc23)NC(=O)[C@H](CCCNC(=N)N)NC(=O)[C@@H](Cc2ccccc2)NC(=O)[C@@H]2C[C@@H](O)CN2C1=O` ; value = 0.2 nM
